# assay.overview: Cytotoxicity against African green monkey Vero E6 cells assessed as reduction in cell viability
# Format: toxicity, cell-based, Vero C1008
# measurement.conditions: chlorocebus sabaeus

{"columns": ["smiles.str", "CC50"],
 "data": [
  ["Cc1ccsc1C(=O)N[C@H](C)c1cccc2ccccc12", "> 500 µM"],
  ["Cc1cc(N)ccc1C(=O)N[C@H](C)c1cccc2ccccc12", "> 500 µM"],
  ["C[C@H](c1cccc2ccccc12)N1Cc2ccccc2C1", "442 µM"],
  ["C[C@@H](NC(=O)c1ccccc1Cl)c1cccc2ccccc12", "376 µM"]
]}

====

Reported pIC50 values for the following compounds.
# assay.overview: Inhibition of SARS-CoV PLpro using Z-Arg-Leu-Arg-Gly-Gly-AMC acetate as substrate by fluorometric assay
# Parameters: species or system Severe acute respiratory syndrome-related coronavirus
pIC50: −log10 of the molar value.
reported.metric: pIC50

{"columns": ["smiles.str", "reported.metric", "observed.value"],
 "data": [
  ["Cc1ccsc1C(=O)N[C@H](C)c1cccc2ccccc12", "pIC50", 4.85],
  ["C[C@H](c1cccc2ccccc12)N1Cc2ccc(O)cc2C1", "pIC50", 5.35],
  ["Cc1ccc(N(C)C)cc1C(=O)N[C@H](C)c1cccc2ccccc12", "pIC50", 5.40],
  ["Cc1cc(NS(C)(=O)=O)ccc1C(=O)N[C@H](C)c1cccc2ccccc12", "pIC50", 5.32],
  ["Cc1cc(N)ccc1C(=O)N[C@H](C)c1cccc2ccccc12", "pIC50", 5.92],
  ["C[C@H](c1cccc2ccccc12)N1Cc2ccccc2C1", "pIC50", 5.54],
  ["CNS(=O)(=O)c1ccc(C)c(C(=O)N[C@H](C)c2cccc3ccccc23)c1", "pIC50", 5.40],
  ["C[C@@H](NC(=O)c1ccccc1Cl)c1cccc2ccccc12", "pIC50", 5.19],
  ["C[C@H](c1cccc2ccccc12)N1Cc2ccc(N)cc2C1", "pIC50", 5.31]
]}

====

# target.system: Replicase polyprotein 1ab (Severe acute respiratory syndrome coronavirus 2, UniProt P0DTD1)
# assay.overview: Inhibition of SARS-CoV-2 PLpro
reported.metric: IC50 (nM)

{"columns": ["smiles.str", "u", "observed.value"],
 "data": [
  ["Cc1ccc(NC2CNC2)cc1C(=O)N[C@H](C)c1cccc(-c2ccc(CNC[C@H]3CCCO3)s2)c1", "nM", 760]
]}

====

Quick reference: IC50 of the listed items.
# target.system: Replicase polyprotein 1ab (Severe acute respiratory syndrome coronavirus 2)
# assay.overview: Inhibition of C-terminal His-tagged SARS-CoV-2 PLpro BetaCoV/Wuhan/WIV04/2019 strain (1564 to 1876 residues) expressed in Escherichia coli BL21(DE3) using FRET substrate measured after 3 hrs by enzymatic assay

{"columns": ["smiles.str", "IC50"],
 "data": [
  ["COc1cc(O)ccc1CN(C)[C@H](C)c1cccc2ccccc12", "580 nM"],
  ["Cc1ccc(N)cc1CN(C)[C@H](C)c1cccc2ccccc12", "990 nM"]
]}

====

# System: Human rhinovirus sp.
# assay.overview: Antiviral activity against HRV infected in human HeLa cells assessed as inhibition in virus replication by plaque assay
# Type: functional, organism-based
Listed next: entries and their corresponding IC50.

{"columns": ["smiles.str", "u", "IC50"],
 "data": [
  ["COc1ccc(CNC(=O)c2c(O)cc(OCC=C(C)C)cc2OC)cc1", "µg/mL", 0.0072],
  ["CCOc1cc(O)c(C(=O)NCc2ccc(NC)cc2)c(OC)c1", "µg/mL", 0.022],
  ["CCOc1cc(O)c(C(=O)/C=C/c2ccc(OC)cc2)c(OC)c1", "µg/mL", 0.045],
  ["CCOc1cc(O)c(C(=O)NCc2ccc(OC)cc2)c(OC)c1", "µg/mL", 0.014]
]}
